- ASSAY SYSTEM: human δOR (Homo sapiens, UniProt P41143)
- Construct: host or cells: CHO cells (CHO-hδOR; CHO-hδOR-p22F for the cAMP assay)
- Sequence (P41143 whole entry): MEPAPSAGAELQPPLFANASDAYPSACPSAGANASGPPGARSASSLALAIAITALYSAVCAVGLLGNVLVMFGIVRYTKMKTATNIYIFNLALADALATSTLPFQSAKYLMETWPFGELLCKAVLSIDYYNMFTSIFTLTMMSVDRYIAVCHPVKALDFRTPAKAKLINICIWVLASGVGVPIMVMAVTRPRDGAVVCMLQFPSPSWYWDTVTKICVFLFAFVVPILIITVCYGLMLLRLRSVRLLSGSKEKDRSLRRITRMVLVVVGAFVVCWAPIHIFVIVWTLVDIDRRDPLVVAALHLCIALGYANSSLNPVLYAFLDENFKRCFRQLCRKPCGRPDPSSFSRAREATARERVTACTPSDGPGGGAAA
- EXPERIMENT NOTES: [35S]GTPγS binding assay, CHO-hδOR membranes
- Format: biochemical
- EXPERIMENTAL SETUP: [35S]GTPγS binding; relative to DPDPE

{"columns": ["COMPOUND", "READOUT UNITS", "δOR % stim."],
 "data": [
  ["CO[C@@]12CCC(=O)[C@]3(C)Oc4c(O)ccc5c4[C@@]31CCN(CCc1ccccc1)[C@@H]2C5", "%", 103],
  ["CO[C@@]12CCC(=O)[C@]3(C)Oc4c(O)ccc5c4[C@@]31CCN(C)[C@@H]2C5 [14-MM (4), 14-methoxymetopon, reference compound]", "%", 100],
  ["CO[C@@]12CCC(=O)[C@@H]3Oc4c(O)ccc5c4[C@@]31CCN(CCc1ccccc1)[C@@H]2C5", "%", 107],
  ["CO[C@@]12CCC(=O)[C@@H]3Oc4c(O)ccc5c4[C@@]31CCN(C)[C@@H]2C5 [14-OMO (3), 14-O-methyloxymorphone, reference compound]", "%", 102]
]}
